TGI by entry:
System: A549 NSCLC
assay_comment: NCI tumour cell line growth inhibition, 48 h
assay_metric: TGI

molecule=COc1cc(Nc2cnc3cc(F)c(F)cc3n2)cc(OC)c1OC assay_metric=TGI obs_value="> 100 µM"
molecule=COc1cc(Nc2cn[nH]c2-c2ccc(Cl)cc2)cc(OC)c1OC assay_metric=TGI obs_value="> 100 µM"
molecule="CC(C)C1OC23CCCCC2C(C#N)(C#N)C1(C#N)C(=N)O3 (stereo not drawn)" assay_metric=TGI obs_value="> 100 µM"
molecule=CC(C)c1ccc(Nc2ccc3c(OCCCN4CCN(C)CC4)cccc3n2)cc1 assay_metric=TGI obs_value="29.8 µM"
molecule="COC(C)(C)C1=CCC(C)CC1 (stereo not drawn)" assay_metric=TGI obs_value="> 100 µM"
molecule=CN(c1ccc(Cl)cc1)S(=O)(=O)c1cccc([N+](=O)[O-])c1 assay_metric=TGI obs_value="> 100 µM"
molecule="CC(=O)Nc1cc(C(=O)Nc2cc(C(=O)N3CC(CCl)c4c3cc(N)c3ccccc43)nn2C)nn1C (stereo not drawn)" assay_metric=TGI obs_value="2.85 µM"
molecule=Cc1cccc(-c2nc3ccc([N+](=O)[O-])cc3c(=O)o2)c1 assay_metric=TGI obs_value="> 100 µM"
molecule="CC(=O)OC1Oc2ccccc2-c2oc(=O)c(-c3cc(=O)oc4cc(O)ccc34)cc21 (stereo not drawn)" assay_metric=TGI obs_value="> 100 µM"
molecule=Clc1ccc2c(NCCCNc3nccc(Nc4ccc(Br)cc4)n3)ccnc2c1 assay_metric=TGI obs_value="3.52 µM"
molecule=O=C(OC(=O)n1ccc2ccccc21)n1ccc2ccccc21 assay_metric=TGI obs_value="> 100 µM"
molecule="COC(=O)C(C(=O)C(=O)Nc1cccc(OC)c1)c1cnc2ccccc2n1 (stereo not drawn)" assay_metric=TGI obs_value="> 100 µM"
molecule=CCn1c(-c2cc(OC)cc(OC)c2)nc2c1C(=O)c1ccccc1C2=O assay_metric=TGI obs_value="> 100 µM"
